# Tested on: THRa homodimer (NR concentration 90 nM)
# assay explanation: PBM binding z-score (relative to random genomic background probes); higher = stronger binding; sequences stand for … in GC…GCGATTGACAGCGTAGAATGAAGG
value type: PBM binding z-score
// return a plain number; no unit text

Respond only with PBM binding z-score recorded for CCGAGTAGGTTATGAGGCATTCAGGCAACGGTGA
0.0556

Respond only with PBM binding z-score recorded for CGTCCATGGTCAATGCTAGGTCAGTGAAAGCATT
0.665

Respond only with PBM binding z-score recorded for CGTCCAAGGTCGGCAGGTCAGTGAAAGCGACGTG
0.0758

Respond only with PBM binding z-score recorded for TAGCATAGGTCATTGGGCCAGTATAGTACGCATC
-0.526

Respond only with PBM binding z-score recorded for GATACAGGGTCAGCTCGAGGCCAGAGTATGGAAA
0.628

Respond only with PBM binding z-score recorded for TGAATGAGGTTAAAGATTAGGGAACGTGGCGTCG
0.417

Respond only with PBM binding z-score recorded for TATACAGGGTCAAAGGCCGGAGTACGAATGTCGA
0.872

Respond only with PBM binding z-score recorded for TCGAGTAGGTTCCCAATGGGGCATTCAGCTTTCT
-0.628

Respond only with PBM binding z-score recorded for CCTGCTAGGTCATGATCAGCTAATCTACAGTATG
0.661

Respond only with PBM binding z-score recorded for TCTGGGAGGACACGAAAGGTCAGAGCTCGACATC
1.59

Respond only with PBM binding z-score recorded for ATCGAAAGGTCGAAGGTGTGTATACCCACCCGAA
-0.397

Respond only with PBM binding z-score recorded for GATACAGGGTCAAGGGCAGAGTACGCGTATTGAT
1.49

Respond only with PBM binding z-score recorded for CCCTACGGGTCAAGGTTATAGCACGGGTGGTACG
0.962

Respond only with PBM binding z-score recorded for GCTATTAGTTGAAAGGGCAAGCGAATGATTCTCG
-0.289

Respond only with PBM binding z-score recorded for CCTCGGAGGACAACAGGTGGTCAGAGCTGCCAGA
-0.269

====

# Test system: RARg:RXRa (NR concentration 270 nM, RXRa partner concentration 90 nM)
# assay explanation: PBM binding z-score (relative to random genomic background probes); higher = stronger binding; sequences stand for … in GC…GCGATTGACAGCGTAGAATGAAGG
value type: PBM binding z-score
// return a plain number; no unit text

Respond only with PBM binding z-score recorded for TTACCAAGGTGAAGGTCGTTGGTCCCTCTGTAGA
1.01

Respond only with PBM binding z-score recorded for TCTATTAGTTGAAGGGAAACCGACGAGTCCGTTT
-0.0691

Respond only with PBM binding z-score recorded for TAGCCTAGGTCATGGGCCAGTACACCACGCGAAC
4.3

Respond only with PBM binding z-score recorded for CGTCAAAGCTCAAGGTAACGTAACAGAAAGCAGC
0.00785

Respond only with PBM binding z-score recorded for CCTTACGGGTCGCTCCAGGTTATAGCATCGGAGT
0.907

Respond only with PBM binding z-score recorded for TCTGCTAGGTCAGTTGGTCAGCTAGCGAGCTGCC
2.7

Respond only with PBM binding z-score recorded for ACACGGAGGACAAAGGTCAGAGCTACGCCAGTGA
6.1

Respond only with PBM binding z-score recorded for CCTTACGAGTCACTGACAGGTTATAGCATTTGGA
1.22

Respond only with PBM binding z-score recorded for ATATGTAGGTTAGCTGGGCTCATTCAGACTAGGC
0.263

Respond only with PBM binding z-score recorded for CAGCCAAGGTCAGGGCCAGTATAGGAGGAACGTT
4.92

Respond only with PBM binding z-score recorded for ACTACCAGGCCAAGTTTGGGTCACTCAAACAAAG
2.52

Respond only with PBM binding z-score recorded for GCTTACGGGTAAAAGGTTATAGCATGAATAGAAT
2.68

Respond only with PBM binding z-score recorded for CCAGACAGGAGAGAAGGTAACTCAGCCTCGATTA
-0.0304

Respond only with PBM binding z-score recorded for CAAACTAGGTCACCGGAAGGTCAAATTCCGCATG
8.17

Respond only with PBM binding z-score recorded for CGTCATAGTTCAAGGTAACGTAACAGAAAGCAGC
2.96

Respond only with PBM binding z-score recorded for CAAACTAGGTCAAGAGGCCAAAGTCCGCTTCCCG
4.65

Respond only with PBM binding z-score recorded for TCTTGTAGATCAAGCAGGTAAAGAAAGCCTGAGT
-0.262

Respond only with PBM binding z-score recorded for CAAACTAGGTCAAAGGTCAAAGGCGAGCCAACCA
9.06

====

Would you mind telling me the reported PBM binding z-score of each entry?
# System: RXRa homodimer (NR concentration 180 nM)
# assay explanation: PBM binding z-score (relative to random genomic background probes); higher = stronger binding; sequences stand for … in GC…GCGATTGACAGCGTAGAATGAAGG
// return a plain number; no unit text

Output reported PBM binding z-score of the sequence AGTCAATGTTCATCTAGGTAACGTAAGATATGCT on RXRa homodimer (NR concentration 180 nM).
0.0893

Output reported PBM binding z-score of the sequence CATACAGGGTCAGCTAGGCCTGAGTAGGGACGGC on RXRa homodimer (NR concentration 180 nM).
4.15

Output reported PBM binding z-score of the sequence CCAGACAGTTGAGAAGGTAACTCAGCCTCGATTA on RXRa homodimer (NR concentration 180 nM).
0.203

Output reported PBM binding z-score of the sequence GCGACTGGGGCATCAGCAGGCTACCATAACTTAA on RXRa homodimer (NR concentration 180 nM).
-0.168

Output reported PBM binding z-score of the sequence TCTTGTAGATCAACAGGCGGTTAAGAAAGATCGA on RXRa homodimer (NR concentration 180 nM).
0.0872

Output reported PBM binding z-score of the sequence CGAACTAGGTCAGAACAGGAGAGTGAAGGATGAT on RXRa homodimer (NR concentration 180 nM).
1.23

Output reported PBM binding z-score of the sequence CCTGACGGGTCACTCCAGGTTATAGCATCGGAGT on RXRa homodimer (NR concentration 180 nM).
3.59

Output reported PBM binding z-score of the sequence AATACAGGGTCATCGTATGCCAGAGTACGCACAG on RXRa homodimer (NR concentration 180 nM).
6.33

====

# Tested on: VDR:RXRa (NR concentration 270 nM, RXRa partner concentration 90 nM)
# assay explanation: PBM binding z-score (relative to random genomic background probes); higher = stronger binding; sequences stand for … in GC…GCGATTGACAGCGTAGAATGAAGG
Use 3 as the dividing line for PBM binding z-score, with the line itself on the 1 (yes) side and lower values as 0 (no).

Hi, just wondering whether CGTCCAAGGTCAGAGAGGACAGTGAATGCCGAGT shows PBM binding z-score of 3 or higher.
1 (yes)

Hi, just wondering whether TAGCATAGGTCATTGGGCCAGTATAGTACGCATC shows PBM binding z-score of 3 or higher.
1 (yes)

Hi, just wondering whether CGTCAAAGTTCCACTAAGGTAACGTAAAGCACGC shows PBM binding z-score of 3 or higher.
0 (no)

Hi, just wondering whether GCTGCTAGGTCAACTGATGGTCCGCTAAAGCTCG shows PBM binding z-score of 3 or higher.
0 (no)

Hi, just wondering whether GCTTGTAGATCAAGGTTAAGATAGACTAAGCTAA shows PBM binding z-score of 3 or higher.
0 (no)

Hi, just wondering whether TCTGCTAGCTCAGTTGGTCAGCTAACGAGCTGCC shows PBM binding z-score of 3 or higher.
0 (no)

Hi, just wondering whether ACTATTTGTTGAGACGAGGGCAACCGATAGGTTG shows PBM binding z-score of 3 or higher.
0 (no)

Hi, just wondering whether AATACAGGGTCATCGTAGGCAAGAGTACGCACAG shows PBM binding z-score of 3 or higher.
1 (yes)

Hi, just wondering whether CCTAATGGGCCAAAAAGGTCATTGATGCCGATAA shows PBM binding z-score of 3 or higher.
1 (yes)

Hi, just wondering whether ATCTCTAGGTAACAAGTTCAGTGGAAGAGAGGAC shows PBM binding z-score of 3 or higher.
0 (no)

Hi, just wondering whether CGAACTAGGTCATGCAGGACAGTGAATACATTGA shows PBM binding z-score of 3 or higher.
1 (yes)

Hi, just wondering whether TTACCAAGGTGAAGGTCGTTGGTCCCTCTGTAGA shows PBM binding z-score of 3 or higher.
0 (no)

Hi, just wondering whether CGTCAAAGTTCAAGGTAAGGTAACAGAAAGCAGC shows PBM binding z-score of 3 or higher.
1 (yes)

Hi, just wondering whether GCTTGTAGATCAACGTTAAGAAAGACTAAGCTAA shows PBM binding z-score of 3 or higher.
0 (no)

Hi, just wondering whether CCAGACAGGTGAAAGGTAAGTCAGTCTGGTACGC shows PBM binding z-score of 3 or higher.
0 (no)

Hi, just wondering whether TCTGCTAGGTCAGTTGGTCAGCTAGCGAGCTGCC shows PBM binding z-score of 3 or higher.
0 (no)
